system: NEK6; conditions: concentration: 1 μM, replicates: in singlicate; n = 1;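 further: KINOMEscan kinase panel screen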
ASSAY ENDPOINT: %Inh
Please state the number and follow it with the unit.

### Prompt Read the entry "Cc1ccc(C)c(NC(=O)NCCNc2ccnc(Nc3ccc(F)cc3)n2)c1" and write its reported %Inh.
### Response 0%

### Prompt Respond only with %Inh recorded for "Cl.c1ccc(Cn2ncc3cc(Nc4ncnc5ccccc45)ccc32)cc1"
### Response 0%

### Prompt Give the value of %Inh reported for the following: "CSc1ccc(NC2=C(c3ccccc3Cl)C(=O)NC2=O)cc1"
### Response 0%

### Prompt Indicate the recorded %Inh value for this compound: "COc1ccc(NC(=O)c2ccc(-c3cc(-c4nnc(C)o4)ccc3C)cc2)cc1"
### Response 0%

### Prompt # return recorded %Inh for input "Clc1cccc(-c2nc(Nc3ccncc3)c3ccccc3n2)c1"
### Response 14%

### Prompt Given "CCC(CC)(CC)n1cnc2c(N)ncnc21" , respond with its %Inh.
### Response 0%

### Prompt Report measured %Inh; entry is "Cl.O=S(=O)(c1cccc(F)c1)c1ccc(Nc2ncnc3cc(Br)sc23)cc1Cl"
### Response 0%

### Prompt Supply recorded %Inh for "CC(C)N1CCC(n2cnc(-c3ccc(F)cc3)c2-c2ccnc(N)n2)CC1" here.
### Response 8%

### Prompt Indicate its recorded %Inh; the compound in question is "N#Cc1ccc(Oc2ccc(Nc3ncnc4cc[nH]c34)cc2Cl)cc1"
### Response 0%

---

tested on: TBK1; settings: concentration: 1 μM, replicates: in singlicate; n = 1
ASSAY ENDPOINT: %Inh (%)
Give the quantity in %, number only.

// known answers, use as guide
{"columns": ["COMPOUND", "%Inh, %"],
 "data": [
  ["Clc1cccc(-c2nc(Nc3ccncc3)c3ccccc3n2)c1 [GW873004]", 11],
  ["Cl.c1ccc(Cn2ncc3cc(Nc4ncnc5ccccc45)ccc32)cc1 [GW273749]", 23],
  ["CC(=O)Nc1n[nH]c2ncc(-c3ccccc3)cc12 [SB-548492]", 29],
  ["CC(C)(C)OC(=O)NC1CCCN(c2cc(-c3ccc4c(N)n[nH]c4c3)nc(N)n2)C1 (stereo not drawn) [GSK2286096]", 74],
  ["CNc1nccc(-c2c(-c3ccc(F)cc3)ncn2C2CCN(C)CC2)n1 [SB-222903]", 1]
]}

### Prompt Read off the recorded %Inh for Nc1nc(-c2ccccn2)c(-c2ccnc3ccccc23)s1 [GW548057]
### Response 12

### Prompt Determine from records and report %Inh for Cc1cc(N2CCC(NS(=O)(=O)c3ccc(F)cc3)CC2)nc(Nc2cccc(C#N)c2)n1.O=C(O)C(F)(F)F [GSK1653537]
### Response 1

### Prompt Report %Inh, nothing else, for this compound: Cl.Cn1ccc(-c2cccc(Nc3ccnc4cc(-c5nccs5)ccc34)c2)n1 [GW525701]
### Response 17

### Prompt Note %Inh for the compound shown: c1ccc(-c2ccc3c(-c4ccnc(Nc5ccc6c(c5)OCCO6)n4)cnn3n2)cc1 [GW818941]
### Response 22

### Prompt Given the compound CCCc1ccc(S(=O)(=O)NC2CCN(c3ccnc(Nc4ccc(OC)cc4)n3)C2)cc1 (stereo not drawn) [GSK1379737] , write its reported %Inh.
### Response 0

### Prompt Query %Inh for Nc1n[nH]c2nnc(-c3ccccc3)cc12 [SB-517389]
### Response 6

### Prompt Could you please provide reported %Inh for CSc1nn2c(=O)cc(N3CCOCC3)nc2n1Cc1cccc(Cl)c1Cl [GSK2347225] ? Thanks!
### Response 10

### Prompt Please indicate %Inh recorded for COc1ccc(Nc2nccc(N3CCC(NC(=O)c4cccc(NC(C)=O)c4)C3)n2)cc1 (stereo not drawn) [GSK1379732]
### Response 0

### Prompt Supply %Inh value. Item: Cl.Fc1ccccc1COc1ccc(Nc2ncnc3ccc(-c4nnc(C(F)(F)F)o4)cc23)cc1Cl [GW424170]
### Response 7

### Prompt Please indicate %Inh recorded for FC(F)(F)c1ccc(-c2nn3ncccc3c2-c2ccnc(Nc3cccc(C(F)(F)F)c3)n2)cc1 [GW828205]
### Response 51

### Prompt Tell me measured %Inh for "CN1c2ccc(-c3ccc(C(=O)NCCO)cc3)cc2-c2[nH]ncc2S1(=O)=O" please.
### Response 31

### Prompt Give a short answer stating reported %Inh for Cc1cccc(-c2nc(Nc3ccc4[nH]nnc4c3)c3ccccc3n2)n1 [GW867587] .
### Response 14

### Prompt Answer with the recorded %Inh of CN1CCC(n2cnc(-c3ccc(F)cc3)c2-c2ccnc(NC3CCNCC3)n2)CC1 [SB-229482] only.
### Response 0
